# System: MDA-MB-468 breast
# EXPERIMENTAL PROTOCOL: NCI tumour cell line growth inhibition, 48 h; in the data active = GI50 below about 0.43 µM; inactive = the rest
Pick from 1 (yes) = active, 0 (no) = inactive when you respond.

Please review the following examples before continuing.
| COMPOUND | SYSTEM | ASSIGNED CLASS |
| --- | --- | --- |
| CN1CCN(C(=O)[C@@]2(C)CC[C@]3(C)CC[C@]4(C)C(=CC[C@@H]5[C@@]6(C)CCC(=O)NC(C)(C)[C@@H]6CC[C@]54C)[C@@H]3C2)CC1 | MDA-MB-468 breast | 0 (no) |
| C[C@H](c1ccc(F)cc1CCCC(=O)O)N(c1cc(F)ccc1F)S(=O)(=O)c1ccc(Cl)cc1 | MDA-MB-468 breast | 0 (no) |
| O=C(c1ccccc1)C(Cl)C(Cl)c1ccccc1 (stereo unspecified) | MDA-MB-468 breast | 0 (no) |

Prompt: So what was the verdict on O=C([O][Hg][c]1ccccc1)c1ccccc1 in this test?
Response: 0 (no)

Prompt: So what was the verdict on O=C(CCCn1c2c(sc3ccccc32)c(=O)n2nnc(-c3ccccc3)c12)NCCc1cnc[nH]1 in this test?
Response: 0 (no)

Prompt: So what was the verdict on NC(=O)c1cccc2c(N[C@H](CN3CCC3)c3ccc(Cl)c(C(F)(F)F)c3)ncnc12 in this test?
Response: 1 (yes)
